Biological target: ETS1 (UniProt P14921)
Sequence: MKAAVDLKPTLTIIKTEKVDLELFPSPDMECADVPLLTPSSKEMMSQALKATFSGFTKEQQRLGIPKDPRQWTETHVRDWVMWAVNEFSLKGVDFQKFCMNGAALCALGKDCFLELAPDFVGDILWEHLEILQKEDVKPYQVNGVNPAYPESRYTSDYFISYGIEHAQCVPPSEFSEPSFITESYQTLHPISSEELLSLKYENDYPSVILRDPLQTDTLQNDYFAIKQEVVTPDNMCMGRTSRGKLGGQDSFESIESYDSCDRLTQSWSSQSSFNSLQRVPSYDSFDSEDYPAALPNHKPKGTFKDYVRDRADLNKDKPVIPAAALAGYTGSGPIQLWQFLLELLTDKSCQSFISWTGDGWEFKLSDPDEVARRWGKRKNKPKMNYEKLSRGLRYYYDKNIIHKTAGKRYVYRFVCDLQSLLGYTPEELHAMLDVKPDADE
Assay: ETS1 binding intensity (PBM fluorescence), ETS1 alone (arbitrary fluorescence units); higher = stronger binding
Settings: ETS1 concentration 1 nM; RUNX1 concentration 0 nM
readout kind: ETS1 binding intensity
// no unit string in output, number only

Example cases with answers are listed next.
- GGTGGCAACATCCTGGGGAGGGGAACCCACAGGGGA: 364
- GGTGCCTGGGGAGGATGTGGGCTGACTGGGAGGGGT: 870
- CGGTCAGGTCGCAGGAAACCACAGCGGCAGCGCGGC: 732
- GTGGCGAAAGTGCGGATGCGAAACCGCTGGCTCGGC: 587
- AGGGAGACCGGGCCGGATTGCGGGGAGTGAGCAGGT: 543
- TCCGGAAGTCGGAGGAACACCCCAGCCGCCGCAGCC: 1840
- GCTCCTCCCGGATATAAAGCCCCAAACCACGCCACT: 724
- CCAAAAAGGAAGGAAACCAGAAAGCCACAGAATGGT: 487
- GAACTGAAGAAGGCAGGAAGCCACAGGCTCCTGGGT: 1730
- ACGGACAGAATTTCCTCCCCCGTCACCACAGCGACC: 686

ETS1 binding intensity for CAACAACCGGAAGTGGGGCGGGCCGCAGTACCCGCC ?
14900

ETS1 binding intensity for CTTCTGAGAGGAGGATGTGGTCAGATACCTACAAAT ?
1030

----------
molecular target: RUNX1 (UniProt Q01196); experiment: RUNX1 binding intensity (PBM fluorescence), RUNX1 alone (arbitrary fluorescence units); higher = stronger binding; settings: RUNX1 concentration 2 nM; ETS1 concentration 0 nM
Sequence (Q01196 whole entry): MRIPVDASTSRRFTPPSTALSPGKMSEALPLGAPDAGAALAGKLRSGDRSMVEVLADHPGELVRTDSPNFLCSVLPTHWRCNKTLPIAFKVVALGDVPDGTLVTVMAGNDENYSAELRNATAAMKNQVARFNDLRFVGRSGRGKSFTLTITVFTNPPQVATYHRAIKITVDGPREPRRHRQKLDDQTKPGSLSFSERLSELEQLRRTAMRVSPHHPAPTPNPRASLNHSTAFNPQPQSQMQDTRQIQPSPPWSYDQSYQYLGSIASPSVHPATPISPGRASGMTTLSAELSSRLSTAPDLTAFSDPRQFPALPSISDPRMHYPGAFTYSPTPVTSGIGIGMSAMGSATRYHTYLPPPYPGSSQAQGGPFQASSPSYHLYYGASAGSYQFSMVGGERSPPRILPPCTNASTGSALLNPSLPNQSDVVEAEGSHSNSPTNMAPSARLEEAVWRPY
readout kind: RUNX1 binding intensity

Example cases with answers are listed next.
- GAGTTGCTTCCGGCCGTGTTGGTGGTCTGAATTGAG: 802
- CTTGCTTAACGCTTCCTGAGGGGTGGTTTGGGTTTT: 837
- CACCTCACAGCCCGGATACAAACCGCCTACCCGCCC: 1300
- CACTTCCTGTCAAAGCCAGTTCCTTAACCGCTTAGG: 948
- CTGGTTTCATTTCCGGGTGCGGCTTCTGTCATAAAG: 924
- CCTCGGTTCGGAAACGGCGAAAGCAAACCGCAAGGA: 2260
- TGGGGAGGCAGGAAACGGGCCTTGTGGTTGGGGGGT: 770
- CCATTTCCCGCCTACCGACCTGCTGCACCGCACGGA: 1430

RUNX1 binding intensity for CCATTTCCCCCATCACTTTGAATTGTGGTTCTTCTC ?
1590

RUNX1 binding intensity for TGTCTCATTTCCTGTAGGTAACAGGCACCACAATAG ?
968

RUNX1 binding intensity for CTGCTTCCGGCCCCGGGGTTCGCTACCCCACAATCC ?
981

RUNX1 binding intensity for CACCTGCGGAAGTCACAGGGAAGCCACAGAGAGATG ?
766

RUNX1 binding intensity for AGGTTTTGAAAGAGGAAACCACATACCCGAAAACCA ?
1030

RUNX1 binding intensity for TCTCGTCCGGTCCTTGCTCCCCCTCCCCGCAGCGCT ?
1090

RUNX1 binding intensity for TGGCTGTGAGCTGCAGGATGTGGTCAGGAGAGGAAG ?
804
